EC50 for assorted molecules
# System: Bmi-1
# ASSAY_METHOD_TEXT: Sandwich ELISA Assay (Bmi-1 ELISA) in HT-1080 cells
# Format: cell-based

Nc1cc(Nc2ccc(OC(F)F)cc2)nc(-c2c(C(F)(F)F)nc3ccccn23)n1 :: 0.01 to 0.1 µM
Cc1nc2c(F)cc(F)cc2n1-c1nc(N)c(F)c(Nc2ccc3c(c2)OCO3)n1 :: 0.001 to 0.01 µM
COC(=O)c1ccc(Nc2nc(-n3c(C)nc4ccc(F)cc43)nc(N)c2F)cc1 :: 0.01 to 0.1 µM
CCc1nc2ccccc2n1-c1nc(N)c(F)c(Nc2ccc(OC(F)F)c(F)c2)n1 :: 0.01 to 0.1 µM

Req: Which EC50 value is on record for COc1ccc(Nc2cc(N)nc(-n3c(C)nc4ccccc43)n2)cc1F ?
Resp: 0.001 to 0.01 µM

----------
# Test system: Bmi-1
# ASSAY_METHOD_TEXT: Sandwich ELISA Assay (Bmi-1 ELISA) in HT-1080 cells
# Format: cell-based
# Protocol: Cell Seeding and Compound Treatment (Day 1): HT-1080 cells were seeded at 8000 cells/well (50 μL) in 96-well tissue culture plates. […] The plate was washed and blotted dry as previously described, then prepared TMB substrate (TMB substrate kit, Pierce catalog #34021) (prepared by mixing kit reagents 1:1) (100 μL) was added per well. […] The plates were read at OD450 (experimental) and OD570 (reference).
pEC50: −log10 of the molar value.
READOUT_TYPE: pEC50

# annotated cases, reported pEC50 shown
COc1ccc(Nc2nc(-n3c(C)nc4ccc([N+](=O)[O-])cc43)nc(N)c2F)cc1 [Cpd 233] :: 7.00 to 8.00
Cc1nc2ccc(F)cc2n1-c1nc(N)cc(Nc2ccc(Cl)cc2)n1 [Cpd 263] :: 7.00 to 8.00
COc1ccc(Nc2nc(-n3c(C)nc4ccc(C#N)cc43)nc(N)c2F)cc1 [Cpd 225] :: 7.00 to 8.00
Cc1nc2ccccn2c1-c1nccc(Nc2ccc(Cl)cc2)n1 [Cpd 5] :: 5.52 to 7.00
FC(F)(F)c1nc2cnccn2c1-c1nccc(Nc2ccc(Cl)cc2)n1 [Cpd 47] :: 5.52 to 7.00
Cc1nc2c(F)cc(F)cc2n1-c1nc(N)c(F)c(Nc2ccc(OC(F)F)c(F)c2)n1 [Cpd 128] :: 7.00 to 8.00
CCOc1ccc(Nc2ccnc(-c3c(C(F)(F)F)nc4ccccn34)n2)cc1 [Cpd 37] :: 7.00 to 8.00
COc1ccc(Nc2nc(-n3c(C)nc4cc([N+](=O)[O-])ccc43)nc(N)c2F)cc1 [Cpd 255] :: 5.52 to 7.00

Continue with the next compound.
Req: What pEC50 value was documented for this compound, COc1ccc(Nc2ccnc(-n3c(C)nc4ccccc43)n2)cc1 [Cpd 1] ?
Resp: 7.00 to 8.00

----------
# Tested on: Bmi-1
# ASSAY_METHOD_TEXT: Sandwich ELISA Assay (Bmi-1 ELISA) in HT-1080 cells
# Format: cell-based
Measured EC50 by item

Field: example entries. Status: answers known.
Nc1nc(-c2c(C3CC3)nn3ccccc23)nc(Nc2ccc(OC(F)F)cc2)c1F [Cpd 180] :: 100 to 3000 nM
Cc1nc2ccc(C#N)cc2n1-c1nc(N)c(F)c(Nc2ccc(OC(F)F)cc2)n1 [Cpd 223] :: 100 to 3000 nM
COCc1nc2ccccc2n1-c1nc(N)c(F)c(Nc2ccc(OC(F)F)cc2)n1 [Cpd 216] :: 10 to 100 nM
Fc1ccc2nc(C(F)(F)F)c(-c3nccc(Nc4ccc(OC(F)F)cc4)n3)n2c1 [Cpd 55] :: 100 to 3000 nM

Req: Form field: reported EC50 of Nc1nc(-n2c(C3CC3)nc3ccccc32)nc(Nc2ccc(OC(F)(F)F)cc2)c1F [Cpd 278]
Resp: 100 to 3000 nM

Req: What do you have for Cc1nc2ccc(F)cc2n1-c1nc(N)c(F)c(Nc2ccc(OC(F)(F)F)cc2)n1 [Cpd 191] ?
Resp: 10 to 100 nM

Req: Next molecule up: COc1ccc(Nc2nc(-n3c(C)nc4cc(C#N)ccc43)nc(N)c2F)cc1 [Cpd 228]
Resp: 10 to 100 nM

----------
List of pEC50 values.
# Tested on: Bmi-1
# ASSAY_METHOD_TEXT: Sandwich ELISA Assay (Bmi-1 ELISA) in HT-1080 cells
# Type: cell-based
pEC50: −log10 of the molar value.

CCc1nc2ccccc2n1-c1nc(N)c(Cl)c(Nc2ccc(C(F)(F)F)cc2)n1 :: 7.00 to 8.00
FC(F)(F)c1nc2ccccn2c1-c1nccc(Nc2ccc(-n3cccn3)cc2)n1 :: 5.52 to 7.00
COc1ccc(Nc2ccnc(-c3c(C(F)(F)F)nc4cnccn34)n2)cc1 :: 5.52 to 7.00

Req: For the compound FC(F)(F)c1nc2ccccn2c1-c1nccc(Nc2ccc3c(c2)OCO3)n1 , what pEC50 is on record?
Resp: 5.52 to 7.00

Req: Can you check CCc1nc2ccccc2n1-c1nc(N)c(F)c(Nc2ccc(C(F)(F)F)cc2)n1 next?
Resp: 7.00 to 8.00

----------
# Test system: Bmi-1
# ASSAY_METHOD_TEXT: Sandwich ELISA Assay (Bmi-1 ELISA) in HT-1080 cells
# Type: cell-based
pEC50: −log10 of the molar value.
Each entry below carries its reported pEC50.

Cc1nc2ncc(F)cn2c1-c1nc(N)cc(Nc2ccc(C(F)(F)F)cc2)n1 [Cpd 100] :: 5.52 to 7.00
COc1ccc(Nc2cc(N)nc(-n3c(C)nc4ccc(F)cc43)n2)cc1 [Cpd 265] :: 8.00 to 9.00

Req: If you can, please state the reported pEC50 value of COc1ccc2nc(C(F)(F)F)c(-c3nccc(Nc4ccc(OC(F)(F)F)cc4)n3)n2c1 [Cpd 49] .
Resp: 5.52 to 7.00

Req: // repeat for COc1ccc(Nc2cc(N)nc(-n3c(C)nc4ccccc43)n2)cc1 [Cpd 197] and report
Resp: 8.00 to 9.00

Req: Can you check Cc1nc2ccccc2n1-c1nc(N)cc(Nc2ccc3c(c2)OC(F)(F)O3)n1 [Cpd 206] next?
Resp: 7.00 to 8.00

Req: For Cc1nc2ccc(F)cc2n1-c1nc(N)c(F)c(Nc2ccc(C(F)(F)F)cc2)n1 [Cpd 109] then?
Resp: 7.00 to 8.00

Req: Another compound: Cc1nc2ncc(F)cc2n1-c1nc(N)cc(Nc2ccc(C(F)(F)F)cc2)n1 [Cpd 94]
Resp: 7.00 to 8.00

Req: Lookup CC1(c2nc3ccccc3n2-c2nc(N)cc(Nc3ccc(OC(F)F)cc3)n2)CC1 [Cpd 148]
Resp: 5.52 to 7.00

----------
READOUT_TYPE: melting point

Below, each entry is followed by its recorded melting point result.
COc1ccc(Nc2cc(N)nc(-n3c(C)nc4ccccc43)n2)cc1F :: 233 to 234 °C
Cc1nc2ccc(F)cn2c1-c1nc(N)cc(Nc2ccc(OC(F)F)cc2)n1 :: 136 to 138 °C
Cc1nc2ccc(F)cc2n1-c1nc(N)cc(Nc2ccc3c(c2)OC(F)(F)O3)n1 :: 212 to 215 °C

Req: Any idea what its melting point is? The compound is Nc1cc(Nc2ccc(OC(F)F)cc2)nc(-n2c(C(F)F)nc3ccc(F)cc32)n1
Resp: 114 to 115 °C

Req: And Nc1cc(Nc2ccc(OC(F)F)c(F)c2)nc(-n2c(C3CC3)nc3ccc(F)cc32)n1 ?
Resp: 186 to 188 °C

Req: Do the same for Cc1nc2ccc(F)cc2n1-c1nc(N)cc(Nc2ccc(OC(F)F)cc2)n1 please
Resp: 168 to 170 °C

Req: Same read-out for Nc1cc(Nc2ccc(OC(F)F)cc2)nc(-n2c(C3CC3)nc3ccc(F)cc32)n1 ?
Resp: 175 to 177 °C

Req: Here is the next compound: CCc1nn2ccc(F)cc2c1-c1nc(N)c(F)c(Nc2ccc(C(F)(F)F)cc2)n1
Resp: 164 to 166 °C

Req: Also check Nc1cc(Nc2ccc(C(F)(F)F)cc2)nc(-c2c(C(F)(F)F)nc3ccccn23)n1
Resp: 203 to 205 °C

Req: What about Nc1cc(Nc2ccc(OC(F)F)c(F)c2)nc(-c2c(C3CC3)nc3ccc(F)cn23)n1 ?
Resp: 198 to 200 °C

Req: Query Cc1nc2ccc(F)cn2c1-c1nc(N)c(F)c(Nc2ccc(Cl)cc2)n1 next
Resp: 226 to 229 °C

Req: Follow-up item: Cc1nc2ccc(F)cc2n1-c1nc(N)cc(Nc2ccc(N(C)C)cc2)n1
Resp: 122 to 125 °C

Req: Field entry: CCc1nc2ccccc2n1-c1nc(N)cc(Nc2ccc(C(F)(F)F)cc2)n1
Resp: 183 to 185 °C

Req: Another compound: CCc1nc2ccc(F)cc2n1-c1nc(N)cc(Nc2ccc(OC(F)F)cc2)n1
Resp: 166 to 168 °C

Req: Field entry: Cc1nc2ccc(F)cc2n1-c1nc(N)cc(Nc2ccc(Cl)c(F)c2)n1
Resp: 225 to 227 °C

Req: Would you mind doing Cc1nc2ccccc2n1-c1nc(N)cc(Nc2ccc3c(c2)OC(F)(F)O3)n1 as well?
Resp: 141 to 142 °C
